Listed below: Minimum inhibitory concentration (MIC) Enterococcus hirae ATCC 10541 values for each entry.
system: Enterococcus hirae ATCC 10541; assay: Minimum inhibitory concentration (MIC), further microorganisms; assay type: cell-based; conditions: Table 8; * = significant inhibition of growth, but not complete inhibition
Write the number in µg/mL without appending the unit.

[Q] Please look up its Minimum inhibitory concentration (MIC) Enterococcus hirae ATCC 10541: CCCCCCCCCCCCCCCNc1nc(-c2ccccn2)nc(C)c1CC
[A] 30

[Q] Return reported Minimum inhibitory concentration (MIC) Enterococcus hirae ATCC 10541; argument: CCCCCCCCCCCNc1cc(C(C)C)nc(-c2ccccn2)n1
[A] 1.9

[Q] Using the record for CCCCCCCCCCNc1nc(-c2ccccn2)nc(C)c1C(C)C , report its Minimum inhibitory concentration (MIC) Enterococcus hirae ATCC 10541.
[A] 7.5

[Q] What Minimum inhibitory concentration (MIC) Enterococcus hirae ATCC 10541 value was documented for this molecule, CCCCCCCCCNc1cc(C(C)(C)C)nc(-c2ccccn2)n1 ?
[A] 7.5

[Q] Given the entry CCCCCCCNc1cc(C(C)(C)C)nc(-c2ccccn2)n1 , report its measured Minimum inhibitory concentration (MIC) Enterococcus hirae ATCC 10541.
[A] 1.9

[Q] Minimum inhibitory concentration (MIC) Enterococcus hirae ATCC 10541 lookup needed for CCCCCCCCNc1nc(-c2ccccn2)nc(C)c1CC , thanks.
[A] 30

* * *

Logarithmic reduction in organism count, S. aureus ATCC 6538 values by entry
tested on: S. aureus ATCC 6538; experiment: Determination of the bactericidal activity (logarithmic reduction in organism count); format: cell-based, Staphylococcus aureus; details: contact for 30 minutes at a substance concentration of 120 μg/mL

Record excerpt, results attached:
CCCCCCCCNc1cc(C(F)(F)F)nc(-c2ccccn2)n1 [Compound of formula 33]	<1 log
CCCCCCCNc1cc(C(C)C)nc(-c2ccccn2)n1 [Compound of formula 44]	1–2 log

Let's switch to this molecule now.
[Q] Requested read-out: Logarithmic reduction in organism count, S. aureus ATCC 6538. Entry: CCCCCCCCCCNc1cc(CCOC)nc(-c2ccccn2)n1 [Compound of formula 83]
[A] 2 log

* * *

system: Staphylococcus hominis DMS 20328; assay: Minimum inhibitory concentration (MIC) in microtitre plates; assay type: cell-based; conditions: Table 7; 48 hours at 37° C.; MIC = ≦20% growth compared to control
Reported Minimum inhibitory concentration (MIC) S. hominis by item:
# output: bare number, implied unit µg/mL

[Q] Return reported Minimum inhibitory concentration (MIC) S. hominis; argument: CC(C)(C)c1cc(NCCc2ccccc2)nc(-c2ccccn2)n1 [compound 63]
[A] 3.75

[Q] Report Minimum inhibitory concentration (MIC) S. hominis for COCCc1cc(NCCCCCCCCCN)nc(-c2ccccn2)n1 [compound 78] please.
[A] 15

[Q] # query: Minimum inhibitory concentration (MIC) S. hominis of entry CCCCCCCCCCCCCCCCNc1cc(CCOC)nc(-c2ccccn2)n1 [compound 85]
[A] 120

[Q] // lookup Minimum inhibitory concentration (MIC) S. hominis for CC(C)c1cc(NCCCCCCCCCCCCN)nc(-c2ccccn2)n1 [compound 43]
[A] 7.5

[Q] Which Minimum inhibitory concentration (MIC) S. hominis value belongs to CCCCCCCCCNc1nc(-c2ccccn2)nc(C)c1C(C)C [compound 70] ?
[A] 3.75

* * *

tested on: Staphylococcus hominis DMS 20328; test: Minimum inhibitory concentration (MIC) in microtitre plates; assay type: cell-based; conditions: Table 7; 48 hours at 37° C.; MIC = ≦20% growth compared to control
Classification field: true (1) = Minimum inhibitory concentration (MIC) S. hominis at or over 30 µg/mL; false (0) = Minimum inhibitory concentration (MIC) S. hominis under 30 µg/mL.

NCCCCCCCNc1cc(C(F)(F)F)nc(-c2ccccn2)n1	true (1)
CCCCCCCCCCCCCCCCNc1cc(C(C)C)nc(-c2ccccn2)n1	true (1)
CCCCCCCNc1nc(-c2ccccn2)nc(C)c1C(C)C	false (0)
CCCCCCCCCCNc1nc(-c2ccccn2)nc(C)c1C(C)C	false (0)
CCCCCCCCCCCCCCCCNc1cc(C)nc(-c2ccccn2)n1	false (0)
Cc1cc(NCCCCCCCCCN)nc(-c2ccccn2)n1	true (1)

[Q] For this molecule, is measured Minimum inhibitory concentration (MIC) S. hominis 30 µg/mL or higher? CCCCCCCNc1cc(C)nc(-c2ccccn2)n1
[A] false (0)

[Q] Reported Minimum inhibitory concentration (MIC) S. hominis reaches at least 30 µg/mL for CCCCCCCCCNc1cc(C(C)C)nc(-c2ccccn2)n1 ?
[A] false (0)

[Q] Confirm if Minimum inhibitory concentration (MIC) S. hominis reported for the molecule CCCCCCCCCNc1cc(C(C)(C)C)nc(-c2ccccn2)n1 is 30 µg/mL or above.
[A] false (0)

[Q] State whether the measured Minimum inhibitory concentration (MIC) S. hominis reaches 30 µg/mL, counting equality as reaching it, for CCc1c(C)nc(-c2ccccn2)nc1NCCCCCCCN
[A] true (1)

* * *

tested on: Staphylococcus hominis DMS 20328; assay: Minimum inhibitory concentration (MIC) in microtitre plates; type: cell-based; details: Table 7; 48 hours at 37° C.; MIC = ≦20% growth compared to control
endpoint_name: Minimum inhibitory concentration (MIC) S. hominis (µg/mL)
Respond with the bare value in µg/mL.

Some compounds with recorded Minimum inhibitory concentration (MIC) S. hominis:
CCCCCCCCCNc1cc(CCOC)nc(-c2ccccn2)n1 [compound 82]	7.5
CCCCCCCCNc1cc(C(C)C)nc(-c2ccccn2)n1 [compound 45]	3.75
Cc1cc(NCCCCCCCCCCCCN)nc(-c2ccccn2)n1 [compound 19]	15
COCCc1cc(NCCCCCCCCN)nc(-c2ccccn2)n1 [compound 77]	30
CCCCCCCCNc1cc(CCOC)nc(-c2ccccn2)n1 [compound 81]	15
COCCc1cc(NCCCCCCCN)nc(-c2ccccn2)n1 [compound 76]	40

[Q] Given the entry CC(C)c1cc(NCCCCCCCN)nc(-c2ccccn2)n1 [compound 40] , report its measured Minimum inhibitory concentration (MIC) S. hominis.
[A] 120

* * *

tested on: Staphylococcus hominis DMS 20328; experiment: Minimum inhibitory concentration (MIC) in microtitre plates; assay type: cell-based; conditions: Table 7; 48 hours at 37° C.; MIC = ≦20% growth compared to control
endpoint_name: Minimum inhibitory concentration (MIC) S. hominis
Note: state the figure and append the unit.

CC(C)c1cc(NCCc2ccccc2)nc(-c2ccccn2)n1	30 µg/mL
CC(C)c1cc(NCCCCCCCCN)nc(-c2ccccn2)n1	120 µg/mL

[Q] Given the entry Cc1nc(-c2ccccn2)nc(NCCCCCCCCN)c1C(C)C , report its measured Minimum inhibitory concentration (MIC) S. hominis.
[A] 30 µg/mL

[Q] Looking for the measured Minimum inhibitory concentration (MIC) S. hominis of Cc1nc(-c2ccccn2)nc(NCCCCCCCCCCCCN)c1C(C)C , can you help?
[A] 5 µg/mL

[Q] Dear colleague, I am looking for the recorded Minimum inhibitory concentration (MIC) S. hominis of the following molecule: CCCCCCCCCCCCNc1nc(-c2ccccn2)nc(C)c1CC
[A] 7.5 µg/mL

[Q] // lookup Minimum inhibitory concentration (MIC) S. hominis for CCCCCCCCCCCNc1nc(-c2ccccn2)nc(C)c1CC
[A] 3.75 µg/mL

[Q] Please look up its Minimum inhibitory concentration (MIC) S. hominis: CCc1c(C)nc(-c2ccccn2)nc1NCCCCCCCCCCCCN
[A] 120 µg/mL

[Q] Give the measured Minimum inhibitory concentration (MIC) S. hominis of CCCCCCCCCCCCNc1cc(C(C)(C)C)nc(-c2ccccn2)n1 .
[A] 3.75 µg/mL

[Q] May I ask what Minimum inhibitory concentration (MIC) S. hominis has been recorded for COCCc1cc(NC2CCCCC2)nc(-c2ccccn2)n1 ?
[A] 120 µg/mL

[Q] Recorded Minimum inhibitory concentration (MIC) S. hominis for FC(F)(F)c1cc(NC2CCCCC2)nc(-c2ccccn2)n1 , please?
[A] 60 µg/mL

[Q] // returns reported Minimum inhibitory concentration (MIC) S. hominis for input CCCCCCCCCCCNc1cc(C(F)(F)F)nc(-c2ccccn2)n1
[A] 120 µg/mL

[Q] I'd like to know its Minimum inhibitory concentration (MIC) S. hominis. The molecule in question is CCCCCCCCCCCCCCCCNc1nc(-c2ccccn2)nc(C)c1CC
[A] 120 µg/mL

[Q] Any idea what Minimum inhibitory concentration (MIC) S. hominis was measured for CCCCCCCCCCCNc1cc(C)nc(-c2ccccn2)n1 ?
[A] 3.75 µg/mL

[Q] Which Minimum inhibitory concentration (MIC) S. hominis reading was recorded for the molecule CCCCCCCCCCCCCCCNc1cc(C)nc(-c2ccccn2)n1 ?
[A] 7.5 µg/mL

[Q] Can you look up the measured Minimum inhibitory concentration (MIC) S. hominis of CC(C)c1cc(NCCCCCCCCCN)nc(-c2ccccn2)n1 for me?
[A] 30 µg/mL

[Q] Dear colleague, I am looking for the recorded Minimum inhibitory concentration (MIC) S. hominis of the following molecule: Cc1nc(-c2ccccn2)nc(NCCCCCCCN)c1C(C)C
[A] 30 µg/mL

[Q] Please give the measured Minimum inhibitory concentration (MIC) S. hominis for this molecule: CC(C)(C)c1cc(NCCCCCCCCCCCCN)nc(-c2ccccn2)n1
[A] 7.5 µg/mL

[Q] Reported Minimum inhibitory concentration (MIC) S. hominis for CCCCCCCCCCCCNc1cc(C)nc(-c2ccccn2)n1 : what is it?
[A] 2.5 µg/mL
